Values from patent US7973056B2

Test system: Candida albicans TIMM 1623
experiment: Antifungal activity test (in vivo), mouse systemic infection model
assay_conditions: 0.1 mg/kg s.c.; day 5
measured_metric: survival rate
Output: the number by itself.

Recorded results for 3 compounds are shown here.
INSERT INTO results (compound, observed_value) VALUES
  ('C[C@@H](N1CC=C(c2ccccn2)CC1)[C@](O)(Cn1cncn1)c1ccc(F)cc1F', 60),
  ('OC(Cn1cncn1)(Cn1cncn1)c1ccc(F)cc1F [FLCZ, Fluconazole, reference compound]', 60),
  ('C[C@@H](N1CC=C(c2ccc(Cl)cn2)CC1)[C@](O)(Cn1cncn1)c1ccc(F)cc1F', 100);

In the following, a different compound is considered.
Query: Provide Candida albicans TIMM 1623 survival rate reading for C[C@@H](N1CCC(c2ccccn2)CC1)[C@](O)(Cn1cncn1)c1ccc(F)cc1F .
Result: 60

----------
In this section we review reported MIC values for a set of molecules.
System: Candida albicans ATCC 10231
Enter your answer as a number in µg/mL; do not include the unit.

The following molecules have reported results that may help.
INSERT INTO measurements (molecule, target_entity, measured_metric, observed_value) VALUES
  ('Cc1ccc(C2=CCN([C@H](C)[C@](O)(Cn3cncn3)c3ccc(F)cc3F)CC2)nc1C [I-4]', 'Candida albicans ATCC 10231', 'MIC', 0.3),
  ('C[C@@H](Oc1cc(-c2ccccn2)ccn1)[C@](O)(Cn1cncn1)c1ccc(F)cc1F [I-9]', 'Candida albicans ATCC 10231', 'MIC', 0.3),
  ('C[C@@H](N1CC=C(c2ccccn2)CC1)[C@](O)(Cn1cncn1)c1ccc(F)cc1F [I-3]', 'Candida albicans ATCC 10231', 'MIC', 0.3),
  ('C[C@@H](N1CCC(c2ccccn2)CC1)[C@](O)(Cn1cncn1)c1ccc(F)cc1F [I-1]', 'Candida albicans ATCC 10231', 'MIC', 0.3);

Next item in the queue.
Query: Look up Candida albicans ATCC 10231 data: MIC of C[C@@H](c1ncncc1F)[C@](O)(Cn1cncn1)c1ccc(F)cc1F [C-1, Voriconazol, reference compound] , then report it.
Result: 0.3
